- Tested on: U2OS
- procedureText: Multiplex assay against U2OS
- Type: toxicity, cell-based
- conditionLabel: human, 48 h, 10 µM, compound concentration 10 uM, replicate 1
attributeMeasured: Population Pyknosed Nuclei (%)
Answers are plain numbers, in %.

- CC(=O)Nc1cccc2c1c(Sc1ccc(Cl)cc1)c(C)n2CC(=O)O [AZD1981]: 5
- Cl.NCCc1ccc(O)c(O)c1 [DOPAMINE HYDROCHLORIDE]: 14
- CC(/C=C1\SC(=S)N(CCCC(=O)Nc2ccc(C(=O)O)c(O)c2)C1=O)=C\c1ccccc1: 12
- Cc1c(CC(=O)O)c2cccnc2n1Cc1ccc(S(C)(=O)=O)cc1C(F)(F)F [FEVIPIPRANT]: 8
- CCc1cc2cc(NS(=O)(=O)c3ccc(C#N)cc3)ccc2n(CC)c1=O: 9
- CCCOc1ccc2[nH]cc(C3=CCNCC3)c2n1.Cl: 6
- CCCCC(=O)N(Cc1ccc(-c2ccccc2-c2nnn[nH]2)cc1)[C@H](C(=O)O)C(C)C: 7
- CC(C)COc1ccc(CNC(=O)N(Cc2ccc(F)cc2)C2CCN(C)CC2)cc1 [PIMAVANSERIN]: 42

Hey, quick one: what's Population Pyknosed Nuclei (%) for each of these?
1. C[C@H](N)COC(=O)[C@@H](CCCCN)NC(=O)Cc1c(-c2ccc3ccccc3c2)[nH]c2c1ccc1ccccc12
2. NCCc1cn(S(=O)(=O)c2c(Cl)nc3sccn23)c2ccccc12.O=C(O)C(=O)O
3. CC(C)(C)c1cc(NC(=O)Nc2ccc(-c3cn4c(n3)sc3cc(OCCN5CCOCC5)ccc34)cc2)no1 [QUIZARTINIB]
4. O=C(CCCc1ccccc1)Nc1nc2ccccc2c(=O)s1

10
35
40
8

----------
- Test system: HEK-293T
- procedureText: Multiplex assay against HEK293T
- Type: toxicity, cell-based
- conditionLabel: human, 12 h, 10 µM, compound concentration 10 uM, replicate 1
attributeMeasured: Total Cell Count
Answers are plain numbers.

- CC(=O)Nc1cccc2c1c(Sc1ccc(Cl)cc1)c(C)n2CC(=O)O: 403
- COC[C@@H](c1ccc(C(F)(F)F)cc1)N1CCN(C2(C)CCN(C(=O)c3c(C)ncnc3C)CC2)C[C@@H]1C.O=C(O)/C=C\C(=O)O [VICRIVIROC MALEATE]: 315
- O=C(CCCc1ccccc1)Nc1nc2ccccc2c(=O)s1: 555

Hey, quick one: what's Total Cell Count for each of these?
1. CN1CCN(c2cc(-c3ccccc3)nc(N)n2)CC1
2. CCCCC1=NC2(CCCC2)C(=O)N1Cc1ccc(-c2ccccc2-c2nnn[nH]2)cc1

416
219

----------
Provide the reported Population Pyknosed Nuclei (%) of each item.
- Tested on: HEK-293T
- procedureText: Multiplex assay against HEK293T
- Type: toxicity, cell-based
- conditionLabel: human, 12 h, 10 µM, compound concentration 10 uM, replicate 2
Answers are plain numbers, in %.

Worked examples follow.
* CC(C)COc1ccc(CNC(=O)N(Cc2ccc(F)cc2)C2CCN(C)CC2)cc1 | 27
* CN1CCN(c2cc(-c3ccccc3)nc(N)n2)CC1 | 12
* Cc1sc2c(c1C)C(c1ccc(Cl)cc1)=N[C@@H](CC(=O)NCCCCCCCCNC(=O)COc1cccc3c1C(=O)N(C1CCC(=O)NC1=O)C3=O)c1nnc(C)n1-2 (stereo partly drawn) | 24
* C[C@H](N)COC(=O)[C@@H](CCCCN)NC(=O)Cc1c(-c2ccc3ccccc3c2)[nH]c2c1ccc1ccccc12 | 16
* CCCCC1=NC2(CCCC2)C(=O)N1Cc1ccc(-c2ccccc2-c2nnn[nH]2)cc1 | 15

Hey, quick one: what's Population Pyknosed Nuclei (%) for each of these?
1. CCCOc1ccc2[nH]cc(C3=CCNCC3)c2n1.Cl
2. COC[C@@H](c1ccc(C(F)(F)F)cc1)N1CCN(C2(C)CCN(C(=O)c3c(C)ncnc3C)CC2)C[C@@H]1C.O=C(O)/C=C\C(=O)O [VICRIVIROC MALEATE]
3. N#Cc1cc(F)cc(-c2nc(-c3ccc(F)cn3)no2)c1

1. 11
2. 21
3. 13

----------
- Test system: HEK-293T
- procedureText: Multiplex assay against HEK293T
- Assay type: toxicity, cell-based
- conditionLabel: human, 48 h, 10 µM, compound concentration 10 uM, replicate 1
attributeMeasured: Population Mitotic Cells (%)
Answer with the number, then the unit.

Worked examples follow.
- COc1ccccc1N1CCN(C[C@@H](C(=O)NC(C)(C)C)c2ccccc2)CC1.Cl.Cl: 49%
- C[C@H](N)COC(=O)[C@@H](CCCCN)NC(=O)Cc1c(-c2ccc3ccccc3c2)[nH]c2c1ccc1ccccc12: 72%
- CC(=O)Nc1cccc2c1c(Sc1ccc(Cl)cc1)c(C)n2CC(=O)O: 62%
- N#Cc1c(Oc2cccc(OS(=O)(=O)CCCC(F)(F)F)c2)cccc1C(F)(F)F: 55%
- O=C(NCCN1CCC(n2c(=O)[nH]c3cc(Cl)ccc32)CC1)c1ccc(F)cc1 [HALOPEMIDE]: 62%
- Cl.NCCc1ccc(O)c(O)c1 [DOPAMINE HYDROCHLORIDE]: 70%
- Cc1sc2c(c1C)C(c1ccc(Cl)cc1)=N[C@@H](CC(=O)NCCCCCCCCNC(=O)COc1cccc3c1C(=O)N(C1CCC(=O)NC1=O)C3=O)c1nnc(C)n1-2 (some centres undefined): 51%
- Cc1cccc(NC(=O)CN2CCC(c3ccccn3)CC2)c1.Cl.Cl: 53%

Dear colleague, please send me the reported Population Mitotic Cells (%) for Cc1cnc(-c2cc(N3CCN(C(=O)CCS(C)(=O)=O)CC3)ncc2Cl)c(C)c1 when you can. 74%

----------
Provide the reported Population Tubulin-Different-Phenotype (%) of each item.
- Tested on: U2OS
- procedureText: Multiplex assay against U2OS
- Type: toxicity, cell-based
- conditionLabel: human, 48 h, 10 µM, compound concentration 10 uM, replicate 1
Answers are plain numbers, in %.

• CCCCC1=NC2(CCCC2)C(=O)N1Cc1ccc(-c2ccccc2-c2nnn[nH]2)cc1 [IRBESARTAN] = 3

Hey, quick one: what's Population Tubulin-Different-Phenotype (%) for each of these?
1. C[C@H](N)COC(=O)[C@@H](CCCCN)NC(=O)Cc1c(-c2ccc3ccccc3c2)[nH]c2c1ccc1ccccc12
2. CC(/C=C1\SC(=S)N(CCCC(=O)Nc2ccc(C(=O)O)c(O)c2)C1=O)=C\c1ccccc1
3. Cl.N=C(N)NC(=O)Cc1c(Cl)cccc1Cl [GUANFACINE HYDROCHLORIDE]
4. CC(C)c1noc(N2CCC(COc3ccc(-c4ccc(S(C)(=O)=O)cc4)nc3)CC2)n1 [GSK-1292263]
5. O=C(NCCN1CCC(n2c(=O)[nH]c3cc(Cl)ccc32)CC1)c1ccc(F)cc1 [HALOPEMIDE]
6. COC[C@@H](c1ccc(C(F)(F)F)cc1)N1CCN(C2(C)CCN(C(=O)c3c(C)ncnc3C)CC2)C[C@@H]1C.O=C(O)/C=C\C(=O)O [VICRIVIROC MALEATE]

2
4
4
2
5
1

Hey, quick one: what's Population Tubulin-Different-Phenotype (%) for each of these?
1. NCCc1cn(S(=O)(=O)c2c(Cl)nc3sccn23)c2ccccc12.O=C(O)C(=O)O
2. CN(C)C(=O)Cn1cc(-c2ccc(-c3cncc4ccccc34)cc2)cn1
3. O=C1[C@H](Cc2ccc(O)cc2)N2C(=O)CCN(C(=O)NCc3ccccc3)[C@H]2CN1Cc1cccc2ccccc12
4. CC(C)COc1ccc(CNC(=O)N(Cc2ccc(F)cc2)C2CCN(C)CC2)cc1 [PIMAVANSERIN]

1: 25; 2: 8; 3: 19; 4: 54

----------
Provide the reported Total Cell Count of each item.
- Test system: Fibroblast
- procedureText: Multiplex assay against human fibroblast
- Format: toxicity, cell-based
- conditionLabel: 12 h, 1 µM, compound concentration 1 uM, replicate 1
One number for each entry.

* NCCc1cn(S(=O)(=O)c2c(Cl)nc3sccn23)c2ccccc12.O=C(O)C(=O)O | 146
* Cc1cnc(-c2cc(N3CCN(C(=O)CCS(C)(=O)=O)CC3)ncc2Cl)c(C)c1 | 99
* CCc1cc2cc(NS(=O)(=O)c3ccc(C#N)cc3)ccc2n(CC)c1=O | 157
* Br.CS(=O)(=O)Nc1c(O)ccc2c1CCCC2C1=NCCN1 (stereo not drawn) | 167
* CN1CCN(c2cc(-c3ccccc3)nc(N)n2)CC1 | 135

Hey, quick one: what's Total Cell Count for each of these?
1. Cc1onc(-c2ccccc2Cl)c1C(=O)N(C)c1ccc(Cl)cc1
2. Cc1sc2c(c1C)C(c1ccc(Cl)cc1)=N[C@@H](CC(=O)NCCCCCCCCNC(=O)COc1cccc3c1C(=O)N(C1CCC(=O)NC1=O)C3=O)c1nnc(C)n1-2 (stereo partly drawn)

1. 178
2. 118

----------
Provide the reported Population Tubulin-Different-Phenotype (%) of each item.
- Tested on: Fibroblast
- procedureText: Multiplex assay against human fibroblast
- Format: toxicity, cell-based
- conditionLabel: 48 h, 10 µM, compound concentration 10 uM, replicate 1
Give bare numbers, in %.

Worked examples follow.
* Cc1c(CC(=O)O)c2cccnc2n1Cc1ccc(S(C)(=O)=O)cc1C(F)(F)F [FEVIPIPRANT] | 29
* Cc1cnc(-c2cc(N3CCN(C(=O)CCS(C)(=O)=O)CC3)ncc2Cl)c(C)c1 | 33
* CCCCCC(O)/C=C/[C@H]1C(=O)CC(O)C1C/C=C\CCCC(=O)O (stereo not given in full) | 14
* CC(C)(C)c1cc(NC(=O)Nc2ccc(-c3cn4c(n3)sc3cc(OCCN5CCOCC5)ccc34)cc2)no1 [QUIZARTINIB] | 74

Consider the record given below.
Dear colleague, please send me the reported Population Tubulin-Different-Phenotype (%) for O=C(CCCc1ccccc1)Nc1nc2ccccc2c(=O)s1 when you can. 26

Reference source: ChEMBL document CHEMBL5058577
